I'd appreciate it if you could supply melting point values for the items below.

[Q] Which measured melting point value corresponds to `CONC(=O)c1cc(-c2ccc(-c3ccco3)cc2)n(-c2ccc(S(C)(=O)=O)c(F)c2)n1` ?
[A] 126 to 128 °C

[Q] Which measured melting point value corresponds to `COc1ccc(C(=O)Nc2ccc3ccc(C)nc3n2)cc1` ?
[A] 119 °C

[Q] Which measured melting point value corresponds to `O=C(C1=Cc2ccccc2Oc2ccccc21)N1CCCCC1` ?
[A] 127 to 128 °C

[Q] Which measured melting point value corresponds to `Cc1c(-c2ccccc2)sc2ccc(Cl)cc12` ?
[A] 108 to 110 °C

[Q] Which measured melting point value corresponds to Cc1ccc2c(c1)C(C1=CCN(C(C)O)CC1)CC2(O)c1ccc(F)cc1 (stereo not given) ?
[A] 177 to 178 °C

[Q] Which measured melting point value corresponds to `CCc1nn2ccccc2c1C(C)=O` ?
[A] 108 to 112 °C

[Q] Which measured melting point value corresponds to `Cc1cc(SCC#Cc2ccccc2C(F)(F)F)ccc1OCC(=O)O` ?
[A] 95 to 97 °C

[Q] Which measured melting point value corresponds to `Cn1c(C(=O)O)cc2c3c(c(-c4ccccc4Cl)cc21)C(=O)NC3=O` ?
[A] 301 to 302 °C

[Q] Which measured melting point value corresponds to `Cn1c(=O)c2cccnc2n(-c2cccc([N+](=O)[O-])c2)c1=O` ?
[A] 234 to 235 °C

[Q] Which measured melting point value corresponds to `CC(C)n1nc(-c2sc(Nc3cccnc3)nc2-c2ccccc2)ccc1=O` ?
[A] 226 to 228 °C

[Q] Which measured melting point value corresponds to `NC(=S)c1nccn1Cc1cccs1` ?
[A] 152 to 153 °C

[Q] Which measured melting point value corresponds to `COC(=O)C(=O)c1cc(Cl)c(OCCOc2ccc3ccccc3c2)c(Cl)c1` ?
[A] 120 to 121 °C

[Q] Which measured melting point value corresponds to `COc1c(Cl)ccc(-c2cc(N)c(Cl)c(C(=O)NOCCC#N)n2)c1F` ?
[A] 191 to 194 °C

[Q] Which measured melting point value corresponds to `COc1ccc(N2CCN(c3c(C)c(C)c4c(c3C3CC3)CC(C)(C)O4)CC2)cc1` ?
[A] 121 to 122 °C

[Q] Which measured melting point value corresponds to `CCOC(=O)CC(=O)c1cc(F)c(OP(=O)(OCC)OCC)nc1Nc1ccc(F)cc1F` ?
[A] 127 to 130 °C

[Q] Which measured melting point value corresponds to `CC(C)N1C(=O)NC(NC2CC2)NC1=O` ?
[A] 237 to 239 °C

[Q] Which measured melting point value corresponds to `Cc1cccc2c(C#N)cn(C)c12` ?
[A] 116 °C

[Q] Which measured melting point value corresponds to COc1ccc(Nc2cccc3c2C(=O)N(C2CCC(=O)NC2=O)C3=O)cc1 (stereo not given) ?
[A] 228 to 230 °C

[Q] Which measured melting point value corresponds to `COC1=C(OC)C(=O)C2=C(CC(CO)(CCCCCCCCO)C2)C1=O` ?
[A] 59 to 61 °C

[Q] Which measured melting point value corresponds to COC12CC(c3nnc(-c4cncc(Br)c4)[nH]3)CN(C)C1Cc1c[nH]c3cccc2c13 (stereo not given) ?
[A] 142 to 146 °C

[Q] Which measured melting point value corresponds to CCON=C(CC)C1=C(O)CC(c2ccc(Sc3ncc(C(F)(F)F)cc3F)cc2)CC1=O (stereo not given) ?
[A] 91 to 92 °C

[Q] Which measured melting point value corresponds to `C1=CNC(C(c2ccccc2)c2ccccc2)=C(NCc2ccccc2)C=C1` ?
[A] 186 to 187 °C

[Q] Which measured melting point value corresponds to `Cc1cnc2c(Br)cnn2c1-c1cccnc1` ?
[A] 166 to 168 °C

[Q] Which measured melting point value corresponds to `O=C(C=CCN1CCN(CC(=O)OCc2ccccc2)CC1)Nc1cc2c(Nc3ccc(F)c(Cl)c3)ncnc2cc1OCC1CC1` ?
[A] 174 °C

[Q] Which measured melting point value corresponds to `COc1ccc(N(Cc2cc(C(C)(C)C)c(O)c(C(C)(C)C)c2)S(=O)(=O)c2ccc(C)cc2)cn1` ?
[A] 127 to 129 °C

[Q] Which measured melting point value corresponds to `CCCC(=O)Oc1cc([N+](=O)[O-])cc([N+](=O)[O-])c1O` ?
[A] 65 to 70 °C

[Q] Which measured melting point value corresponds to C=CC(CC(O)C(CC(C)C)NC(=O)C(Cc1c[nH]cn1)NC(=O)C(Cc1ccccc1)Cc1ccccc1)C(C)C (stereo not given) ?
[A] 120 °C

[Q] Which measured melting point value corresponds to Cc1ccc(N2C(=O)C(O)=C(C(=O)c3ccc(C(C)C)cc3)C2c2ccc(Cn3ncnn3)cc2)nn1 (stereo not given) ?
[A] 271 °C

[Q] Which measured melting point value corresponds to CC(C)CC1N=C(c2ccccc2)OC1=O (stereo not given) ?
[A] 53 to 55 °C

[Q] Which measured melting point value corresponds to CC(CCNCCOc1cccc2[nH]ccc12)c1c[nH]c2ccccc12 (stereo not given) ?
[A] 70 to 73 °C

[Q] Which measured melting point value corresponds to `CC(C)C(=O)Nc1cccc(-c2ccnc3c(C(=O)c4cccs4)cnn23)c1` ?
[A] 180 to 181 °C

[Q] Which measured melting point value corresponds to Cc1nn(C)c2cc(-c3nn(C(C)c4oc5ccccc5c(=O)c4-c4cccc(F)c4)c4ncnc(N)c34)ccc12 (stereo not given) ?
[A] 270 to 272 °C

[Q] Which measured melting point value corresponds to `NS(=O)(=O)Oc1cccc(F)c1` ?
[A] 53 to 55 °C

[Q] Which measured melting point value corresponds to `COC(=O)CCCc1cc2nc(Cl)ccc2n1S(=O)(=O)c1ccc2ncsc2c1` ?
[A] 55 °C

[Q] Which measured melting point value corresponds to Cc1c(NC(=O)CC(C)(C)C)c(C)c2c(c1-c1cccc(N)c1)OCC2c1ccc(C(C)C)cc1 (stereo not given) ?
[A] 170 to 172 °C

[Q] Which measured melting point value corresponds to Cc1cc(C(=O)NCO)ncc1C(c1c(F)ccc(F)c1F)S(=O)(=O)CCC(C)(F)F (stereo not given) ?
[A] 161 to 162 °C

[Q] Which measured melting point value corresponds to `NC(=O)N(O)Cc1ccsc1` ?
[A] 129 to 131 °C

[Q] Which measured melting point value corresponds to `COc1ccc(S(=O)(=O)Nc2cccnc2Nc2ccc(OC)c(OC)c2)cc1` ?
[A] 126 to 127 °C

[Q] Which measured melting point value corresponds to `Nc1ccc(Oc2cccc3c(Oc4ccc(N)c(O)c4)cccc23)cc1O` ?
[A] 251 to 253 °C

[Q] Which measured melting point value corresponds to `COc1cc(C(=O)O)ccc1C(F)(F)F` ?
[A] 203 to 204 °C
